Biological target: T1, human sclerostin with a Flag tag (h-SOST-Flag) (human, UniProt Q9BQB4 24-213, biotinylated (biotin labeling kit) in the ELISA)
T1 construct: also called SOST-FLAG protein; not shown: C-terminal Flag tag
T1 sequence (looked up): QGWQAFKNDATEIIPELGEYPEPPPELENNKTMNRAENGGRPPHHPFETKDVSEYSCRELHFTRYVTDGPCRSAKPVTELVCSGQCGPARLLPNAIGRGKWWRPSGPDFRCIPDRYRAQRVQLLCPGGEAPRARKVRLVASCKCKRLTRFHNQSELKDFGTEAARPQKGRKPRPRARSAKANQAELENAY
Assay: binding ELISA, biotinylated h-SOST-Flag on streptavidin plate
reported.endpoint: EC50 (pM)
One number for each entry, in pM.

Query block: Entry humanized antibody Ab-9 (antibody, human IgG4 S228P, kappa, V domains shown) VH: EVQLVQSGAEVKKPGASVKVSCKASGYTFTDYNLDWLRQAPGEGLEWIGDIDPNNGDILYNQKFRDRVTMTTDTSTSTAYMELRSLRSDDTAVYYCARRWAYYFDYWGQGTTVTVSS VL: NIVMTQSPSSLSASVGDRVTITCKASQSVSNDVAWYQQKPGKSPKLLIYYTSNRFTGVPDRFSGSGSGTDFTLTISSLQPEDFATYFCQQDYSSPVTFGGGTKVEIKR has what EC50?
Result block: 400

Query block: And for humanized antibody Ab-10 (antibody, human IgG1, kappa, V domains shown) VH: EVQLVQSGAEVKKPGASVKVSCKASGYTFTDYNLDWVRQAPGQGLEWMGDIDPNNGDILYNQKFRDRVTMTTDTSTSTAYMELRSLRSDDTAVYYCARRWAYYFDYWGQGTTVTVSS VL: DIQMTQSPSSLSASVGDRVTITCKASQSVSNDVAWYQQKPGKAPKLLIYYTSNRFTGVPSRFSGSGSGTDFTLTISSLQPEDFATYYCQQDYSSPVTFGGGTKVEIKR ?
Result block: 540

Query block: Same lookup for humanized antibody Ab-5 (antibody, human IgG4 S228P, kappa, V domains shown, also called humanized anti-SOST antibody) VH: EVQLVQSGAEVKKPGASVKVSCKASGYTFTDYNLDWLRQAPGEGLEWIGDIDPNDGDILYNQKFRDRVTMTTDTSTSTAYMELRSLRSDDTAVYYCARRWAYYFDYWGQGTTVTVSS VL: DIVMTQSPSSLSASVGDRVTITCKASQSVSNDVAWYQQKPGKSPKLLIYYTSNRFTGVPDRFSGSGSGTDFTLTISSLQPEDFATYFCQQDYSSPVTFGGGTKVEIKR , please.
Result block: 630

New cases:
Query block: Find the recorded EC50 belonging to murine anti-human sclerostin monoclonal antibody Ab-1 (antibody, V domains shown, Mouse hybridoma antibody; also called parental antibody; murine antibody) VH: EVQLQQSGPELVKPGTSVKIPCQTSGYTFTDYNLDWLKQRPGESLEWIGDIDPNNGDILYNQKFRDKATLTVDTSSNTAYLELRSLTSEDTAVYYCARRWAYYFDYWGQGTTLTISS VL: NIVMTQTPKLLFVSAGDRITITCKASQSVSNDVAWYQQKPGQSPKLLIYYTSNRFTGVPDRFTGSGYGTDFTLTINTVQAEDLAVYFCQQDYSSPVTFGAGTKLELK and report it.
Result block: 701

Values were extracted from patent US20180099046A1.
